The reported numbers originate from PubChem BioAssay (NCI).

Test system: SF-295 CNS
Test: NCI tumour cell line growth inhibition, 48 h
Measurement name: TGI

## Input Which value of TGI has been reported for C=C(Br)C(C)(Cl)CCC(Br)C(C)(C)Cl (stereo not given) in the records?
## Output > 100 µM

## Input Look at this compound and give its reported TGI. COc1cc([C@@H]2OCC3C(c4ccc5c(c4)OCO5)OCC32)cc(OC)c1OC (stereo not given in full)
## Output > 100 µM

## Input Sample `CC(C)CC(=O)OC[n+]1ccc(-c2c(COC(=O)NC(C)C)c(COC(=O)NC(C)C)c3n2CCC3)cc1` — what was its TGI?
## Output > 100 µM

## Input // lookup TGI for `COc1ccc2c(=O)c(O)c(-c3ccc(OC)c(OC)c3)oc2c1`
## Output 33.1 µM

## Input What does the record list as TGI for `Cc1nc2ccccc2c(N)c1-c1cc(C)c2c(C)nc3ccccc3c2n1` ?
## Output 2.74 µM

## Input Which value of TGI has been reported for `CN1CCN([C@H]2C[C@H]3[C@@H]4CC=C5C[C@@H](O)CC[C@]5(C)[C@H]4CC[C@]3(C)C2=O)CC1` in the records?
## Output > 100 µM

## Input Reported TGI for `O=C(O)c1ccccc1[Se][Se]c1ccccc1C(=O)O` : what is it?
## Output > 100 µM

## Input Fill in: TGI of CNC(=O)C(C)C1CCC2(C)C=CC(=O)C(C)=C2C1O (stereo not given) is ___
## Output > 70.8 µM

## Input Query (compound): CCOC(=O)C(NC(C)=O)(Nc1ccc(F)cc1)C(F)(F)F (stereo not given) ; field requested: TGI
## Output > 100 µM

## Input For O=C(COc1ccc(Br)cc1Br)N1N=C(c2ccc([N+](=O)[O-])o2)CC1(O)c1ccccc1 (stereo not given) , what is its reported TGI?
## Output 53.7 µM

## Input Which TGI is reported for this compound? `C(/c1ccco1)=c1/nc(-c2ccccc2)n2c1nc1ccccc12`
## Output > 100 µM

## Input Can you look up the measured TGI of `Cc1cccc(/C=N/NC(=S)Nc2ccccc2)n1` for me?
## Output > 100 µM

## Input Return reported TGI; argument: `CCCN=C1CCN(Cc2ccccc2)c2ccccc2N1`
## Output 95.3 µM

## Input Given `CC(C)C/C(CC(=O)CCC(=O)Nc1ccccc1[N+](=O)[O-])=N\NC(=O)c1cc2ccccc2cc1O` , state its recorded TGI.
## Output 99.8 µM

## Input Form field: reported TGI of NC(=O)C(c1ccccc1)N1OC2C(=O)N(c3ccccc3)C(=O)C2C1c1c2ccccc2c(Cl)c2ccccc12 (stereo not given)
## Output > 100 µM

## Input Form field: reported TGI of `O=C(O)CSc1ccc([N+](=O)[O-])cc1[N+](=O)[O-]`
## Output > 100 µM

## Input Dear colleague, I am looking for the recorded TGI of the following compound: `COc1cc(/C=N/NC(=O)c2ccc(C(F)(F)F)nc2Nc2ccc(Cl)cc2C)ccc1O`
## Output 3.23 µM

## Input Give the measured TGI of `C=C(C1=CC(=O)C(C)(C)O1)[C@@H]1CC=C([C@@H]2CC[C@H]3[C@@]2(C)CC[C@H]2C(C)(C)C(=O)[C@H](O)C[C@]32C)[C@H](O)O1` .
## Output 22 µM

## Input For the compound shown here, `COc1cc(/C=C/C(=N\NS(=O)(=O)c2ccc(C)cc2)c2sc(NNC(C)=O)nc2C)ccc1O` , give the reported TGI.
## Output > 100 µM

## Input Requested read-out: TGI. Entry: COC1(OC)CCC2C1C1CCC(OC)(OC)C21 (stereo not given)
## Output > 50 µM
